Each entry below lists one item and its recorded Residual activity value.
test system: HPPD polypeptides (wild-type SEQ ID NO:1 and mutants); details: in the presence of Cmpd. 2, 15 μM inhibitor, high substrate concentration; kapp normalized to kapp without inhibitor
Kindly answer with a numeric value in %, unit omitted.

Some molecules with recorded Residual activity:
| MOLECULE | Residual activity / % |
| --- | --- |
| 14 (protein, mutant HPPD polypeptide) MADLYENPMGLMGFEFIEFASPTPGTLEPIFEIMGFTKVATHRSKNVHLYRQGEINLILNNEPNSIASYFAAEHGPSVCGMAFRVKDSQKAYNRALELGAQPIHIDTGPMELNLPAIKGIGGAPLYLIDRFGEGSSIYDIDFVYLEGVERNPVGAGLKVIDHLTHNVYRGRMVYWANFYEKLFNFREARYFDIKGEYTGLTSKAMSAPDGMIRIPLNEESSKGAGQIEEFLMQFNGEGIQHVAFLTDDLVKTWDALKKIGMRFMTAPPDTYYEMLEGRLPDHGEPVDQLQARGILLDGSSVEGDKRLLLQIFSETLMGPVFFEFIQRKGHDGFGPDSFKVLFESVERDQVRRGVLTAD | 82 |
| 22 (protein, mutant HPPD polypeptide) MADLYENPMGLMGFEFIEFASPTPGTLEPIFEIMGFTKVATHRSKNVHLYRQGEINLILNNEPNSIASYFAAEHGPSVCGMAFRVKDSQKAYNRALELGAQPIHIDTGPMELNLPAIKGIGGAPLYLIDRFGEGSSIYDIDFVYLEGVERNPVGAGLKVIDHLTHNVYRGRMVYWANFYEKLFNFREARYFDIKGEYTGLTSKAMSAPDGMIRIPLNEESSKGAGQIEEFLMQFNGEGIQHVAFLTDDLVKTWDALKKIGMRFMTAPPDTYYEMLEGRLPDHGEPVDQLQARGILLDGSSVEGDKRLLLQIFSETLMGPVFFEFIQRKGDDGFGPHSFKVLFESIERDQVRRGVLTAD | 90 |
| 8 (protein, mutant HPPD polypeptide) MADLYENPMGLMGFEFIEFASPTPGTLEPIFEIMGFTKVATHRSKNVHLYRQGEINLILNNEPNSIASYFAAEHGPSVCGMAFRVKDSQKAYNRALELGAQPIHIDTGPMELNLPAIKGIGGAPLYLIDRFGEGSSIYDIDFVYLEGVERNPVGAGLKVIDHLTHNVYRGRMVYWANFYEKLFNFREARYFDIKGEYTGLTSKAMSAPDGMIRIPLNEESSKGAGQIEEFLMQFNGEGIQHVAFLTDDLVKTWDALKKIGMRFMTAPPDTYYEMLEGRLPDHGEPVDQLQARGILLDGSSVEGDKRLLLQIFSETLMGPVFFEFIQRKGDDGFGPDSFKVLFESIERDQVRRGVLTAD | 67 |

Could you now consider this next molecule?
Lookup: Supply Residual activity value. Item: 17 (protein, mutant HPPD polypeptide) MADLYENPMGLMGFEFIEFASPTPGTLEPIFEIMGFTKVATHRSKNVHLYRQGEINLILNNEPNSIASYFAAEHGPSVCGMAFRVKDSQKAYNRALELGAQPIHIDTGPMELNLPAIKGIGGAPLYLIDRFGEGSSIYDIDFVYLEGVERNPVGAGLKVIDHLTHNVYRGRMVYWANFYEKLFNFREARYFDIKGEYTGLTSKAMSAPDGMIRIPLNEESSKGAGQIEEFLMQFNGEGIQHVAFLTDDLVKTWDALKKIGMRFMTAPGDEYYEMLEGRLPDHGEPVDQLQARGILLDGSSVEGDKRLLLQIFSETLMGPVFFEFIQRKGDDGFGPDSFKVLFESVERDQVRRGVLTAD
Found: 90
